target: hERG (human Ether-a-go-go Related Gene) (Homo sapiens); assay: Cardiotoxicity test, hERG assay (MDS Pharma)
Sequence (Q12809 whole entry): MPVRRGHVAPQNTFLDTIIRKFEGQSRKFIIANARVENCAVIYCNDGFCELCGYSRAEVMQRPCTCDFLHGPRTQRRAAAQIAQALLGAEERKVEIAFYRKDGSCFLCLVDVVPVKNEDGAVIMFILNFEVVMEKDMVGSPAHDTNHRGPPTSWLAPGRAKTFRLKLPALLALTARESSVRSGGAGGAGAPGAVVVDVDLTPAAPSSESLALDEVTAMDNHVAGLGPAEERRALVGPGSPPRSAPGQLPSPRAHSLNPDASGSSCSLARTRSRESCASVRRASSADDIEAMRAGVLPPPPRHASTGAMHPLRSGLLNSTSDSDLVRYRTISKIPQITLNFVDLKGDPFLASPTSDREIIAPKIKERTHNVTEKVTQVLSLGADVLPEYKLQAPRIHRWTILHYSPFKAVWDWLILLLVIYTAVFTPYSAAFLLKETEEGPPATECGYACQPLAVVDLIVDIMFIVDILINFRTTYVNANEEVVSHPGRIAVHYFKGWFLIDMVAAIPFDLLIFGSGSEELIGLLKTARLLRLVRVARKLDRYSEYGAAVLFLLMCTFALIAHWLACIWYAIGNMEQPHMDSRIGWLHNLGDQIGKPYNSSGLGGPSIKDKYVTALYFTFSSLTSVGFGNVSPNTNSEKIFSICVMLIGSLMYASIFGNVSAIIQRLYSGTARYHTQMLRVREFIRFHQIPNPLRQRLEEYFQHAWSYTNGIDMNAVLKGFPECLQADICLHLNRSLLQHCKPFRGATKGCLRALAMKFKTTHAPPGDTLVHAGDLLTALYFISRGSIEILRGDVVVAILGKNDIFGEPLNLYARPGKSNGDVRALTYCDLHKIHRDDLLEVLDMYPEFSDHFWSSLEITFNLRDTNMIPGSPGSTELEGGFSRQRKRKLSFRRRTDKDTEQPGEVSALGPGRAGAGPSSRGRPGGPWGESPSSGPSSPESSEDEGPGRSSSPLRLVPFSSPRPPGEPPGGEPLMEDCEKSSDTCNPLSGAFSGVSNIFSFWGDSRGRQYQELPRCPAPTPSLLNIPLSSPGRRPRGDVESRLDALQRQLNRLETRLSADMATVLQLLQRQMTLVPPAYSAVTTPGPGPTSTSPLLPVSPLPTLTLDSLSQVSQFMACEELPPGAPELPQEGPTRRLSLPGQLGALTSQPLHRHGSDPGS
Endpoint Label: IC50 (µM)
The figure you give is taken to be in µM; do not add the unit.

*Q* Missing value: IC50, hERG (human Ether-a-go-go Related Gene) (Homo sapiens), entry COc1ccc(C2(CCCN(C)C)OCc3cc(C#N)ccc32)cc1.O=C(O)C(=O)O (stereo not shown) [Ex. 2, oxalate] . Fill in?
*A* 19.4

*Q* Missing value: IC50, hERG (human Ether-a-go-go Related Gene) (Homo sapiens), entry CN(C)CCCC1(c2ccc(N(C)C)cc2)OCc2cc(C#N)ccc21.O=C(O)C(=O)O (stereo not shown) [Ex. 35, oxalate] . Fill in?
*A* 12.2

*Q* Missing value: IC50, hERG (human Ether-a-go-go Related Gene) (Homo sapiens), entry CN(C)CCCC1(c2cccs2)OCc2cc(C#N)ccc21.O=C(O)C(=O)O (stereo not shown) [Ex. 40, oxalate] . Fill in?
*A* 8.7

*Q* Missing value: IC50, hERG (human Ether-a-go-go Related Gene) (Homo sapiens), entry N#Cc1ccc2c(c1)COC2(CCCn1ccnc1)c1cccs1.O=C(O)C(=O)O (stereo not shown) [Ex. 45, oxalate] . Fill in?
*A* 10.6

###

tested on: Male Wistar rats; experiment: p-PCA-induced ejaculation in anesthetized rats (ejaculation-delaying effect); format: in vivo, rat; details: 50 mg/kg oral; p-PCA 5 mg/kg i.p.; mean ± standard deviation of responding rats
Endpoint Label: Latency: Time to display the ejaculatory response (s)
The figure you give is taken to be in s; do not add the unit.

*Q* State the recorded Latency: Time to display the ejaculatory response for this entry: COc1ccc(C2(CCCn3ccnc3)OCc3cc(C#N)ccc32)cc1.Cl (stereo not shown) [Ex. 5]
*A* 986

*Q* State the recorded Latency: Time to display the ejaculatory response for this entry: Cl.N#Cc1ccc2c(c1)COC2(CCCn1cccn1)c1ccc(F)cc1 (stereo not shown) [Ex. 58]
*A* 850

*Q* State the recorded Latency: Time to display the ejaculatory response for this entry: Cc1ccc(C2(CCCn3ccnc3)OCc3cc(C#N)ccc32)cc1 (stereo not shown) [Ex. 26]
*A* 904

*Q* State the recorded Latency: Time to display the ejaculatory response for this entry: N#Cc1ccc2c(c1)COC2(CCCn1cccn1)c1ccc(Cl)cc1 (stereo not shown) [Ex. 65]
*A* 801

###

system: Sprague-Dawley (SD) rats; assay: Acute toxicity test, single dose, mortality; format: in vivo, rat; conditions: Orally, male SD rats
Endpoint Label: minimum lethal dose
Answer using only a numeral; do not append any unit.

*Q* State the recorded minimum lethal dose for this entry: CN(C)CCCC1(c2cccs2)OCc2cc(C#N)ccc21.O=C(O)C(=O)O (centres unmarked)
*A* 800

*Q* State the recorded minimum lethal dose for this entry: N#Cc1ccc2c(c1)COC2(CCCn1ccnc1)c1cccs1.O=C(O)C(=O)O (centres unmarked)
*A* 1000

*Q* State the recorded minimum lethal dose for this entry: COc1ccc(C2(CCCN(C)C)OCc3cc(C#N)ccc32)cc1.O=C(O)C(=O)O (centres unmarked)
*A* 1000

*Q* State the recorded minimum lethal dose for this entry: CN(C)CCCC1(c2ccc(F)cc2)OCc2cc(C#N)ccc21 (centres unmarked) [Citalopram, reference compound]
*A* 650

*Q* State the recorded minimum lethal dose for this entry: CN(C)CCCC1(c2ccc(N(C)C)cc2)OCc2cc(C#N)ccc21.O=C(O)C(=O)O (centres unmarked)
*A* 1000

###

Molecular target: UniProt P28335
Sequence (P28335 33-458): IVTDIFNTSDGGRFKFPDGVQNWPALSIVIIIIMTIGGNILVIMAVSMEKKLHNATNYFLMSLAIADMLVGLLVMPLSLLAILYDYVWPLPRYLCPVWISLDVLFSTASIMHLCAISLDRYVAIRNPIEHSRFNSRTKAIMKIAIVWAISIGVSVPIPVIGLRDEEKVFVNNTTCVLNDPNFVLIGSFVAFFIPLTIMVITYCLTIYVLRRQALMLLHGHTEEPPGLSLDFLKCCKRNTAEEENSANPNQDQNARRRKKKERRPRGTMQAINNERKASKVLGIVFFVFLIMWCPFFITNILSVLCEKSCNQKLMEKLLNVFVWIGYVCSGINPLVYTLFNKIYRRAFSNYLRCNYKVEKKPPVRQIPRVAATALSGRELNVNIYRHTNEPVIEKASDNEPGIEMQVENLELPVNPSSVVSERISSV
Assay: Radioligand competitive binding assay, [3H]Mesulergine
Settings: human-derived recombinant CHO-K1 cells
Method: In addition, ligand binding to 5HT1A, 5-HT1B and 5-HT2C receptors and 5-HT transporter was evaluated with human-derived recombinant CHO cells, Wistar rat-derived cerebral cortical cells, human-derived recombinant CHO-K1 cells, and human-derived recombinant HEK-293 cells. Each cell line was dosed with 10^−5 μM to 10^4 μM of the compounds of Examples 2, 35, 40 and 45, and then incubated with a radio-labeled ligand for competitive binding. […]
Hi there, I'd appreciate the recorded IC50 for every entry that follows.
The figure you give is taken to be in µM; do not add the unit.

*Q* Missing value: IC50, UniProt P28335, entry CN(C)CCCC1(c2ccc(N(C)C)cc2)OCc2cc(C#N)ccc21.O=C(O)C(=O)O (stereo not shown) [Ex. 35, oxalate] . Fill in?
*A* 898

*Q* Missing value: IC50, UniProt P28335, entry CN(C)CCCC1(c2cccs2)OCc2cc(C#N)ccc21.O=C(O)C(=O)O (stereo not shown) [Ex. 40, oxalate] . Fill in?
*A* 10.1

*Q* Missing value: IC50, UniProt P28335, entry COc1ccc(C2(CCCN(C)C)OCc3cc(C#N)ccc32)cc1.O=C(O)C(=O)O (stereo not shown) [Ex. 2, oxalate] . Fill in?
*A* 7.12

*Q* Missing value: IC50, UniProt P28335, entry N#Cc1ccc2c(c1)COC2(CCCn1ccnc1)c1cccs1.O=C(O)C(=O)O (stereo not shown) [Ex. 45, oxalate] . Fill in?
*A* 8.88

###

system: Male Wistar rats; test: p-PCA-induced ejaculation in anesthetized rats (ejaculation-delaying effect); type: in vivo, rat; settings: 50 mg/kg oral; p-PCA 5 mg/kg i.p.; mean ± standard deviation of responding rats
Kindly return TRUE if reported Latency: Time to display the ejaculatory response is no lower than 900 s; return FALSE if it is lower.

*Q* Hi team, for Cl.N#Cc1ccc2c(c1)COC2(CCn1cccn1)c1ccc(F)cc1 (stereo not shown) [Ex. 60] , is the recorded Latency: Time to display the ejaculatory response at or above 900 s?
*A* TRUE

*Q* Hi team, for CN(C)CCCC1(c2ccc(N(C)C)cc2)OCc2cc(C#N)ccc21 (stereo not shown) [Ex. 34] , is the recorded Latency: Time to display the ejaculatory response at or above 900 s?
*A* FALSE

*Q* Hi team, for N#Cc1ccc2c(c1)COC2(CCn1cccn1)c1ccccc1 (stereo not shown) [Ex. 20] , is the recorded Latency: Time to display the ejaculatory response at or above 900 s?
*A* TRUE

*Q* Hi team, for N#Cc1ccc2c(c1)COC2(CCCn1cccn1)c1ccc(F)cc1 (stereo not shown) [Ex. 57] , is the recorded Latency: Time to display the ejaculatory response at or above 900 s?
*A* TRUE

*Q* Hi team, for Cc1ccc(C2(CCn3ccnc3)OCc3cc(C#N)ccc32)cc1 (stereo not shown) [Ex. 28] , is the recorded Latency: Time to display the ejaculatory response at or above 900 s?
*A* FALSE

*Q* Hi team, for Cc1ccc(C2(CCCn3ccnc3)OCc3cc(C#N)ccc32)cc1.Cl (stereo not shown) [Ex. 27] , is the recorded Latency: Time to display the ejaculatory response at or above 900 s?
*A* FALSE

*Q* Hi team, for CN(C)CCCC1(c2cccs2)OCc2cc(C#N)ccc21.Cl (stereo not shown) [Ex. 41] , is the recorded Latency: Time to display the ejaculatory response at or above 900 s?
*A* FALSE

###

Hi there, I'd appreciate the recorded minimum lethal dose for every entry that follows.
tested on: Sprague-Dawley (SD) rats; test: Acute toxicity test, single dose, mortality; assay type: in vivo, rat; conditions: Intravenously, male SD rats
Answer using only a numeral; do not append any unit.

*Q* State the recorded minimum lethal dose for this entry: CN(C)CCCC1(c2cccs2)OCc2cc(C#N)ccc21.O=C(O)C(=O)O (centres unmarked) [Ex. 40]
*A* 50

*Q* State the recorded minimum lethal dose for this entry: CN(C)CCCC1(c2ccc(N(C)C)cc2)OCc2cc(C#N)ccc21.O=C(O)C(=O)O (centres unmarked) [Ex. 35]
*A* 50

*Q* State the recorded minimum lethal dose for this entry: N#Cc1ccc2c(c1)COC2(CCCn1ccnc1)c1cccs1.O=C(O)C(=O)O (centres unmarked) [Ex. 45]
*A* 50

*Q* State the recorded minimum lethal dose for this entry: COc1ccc(C2(CCCN(C)C)OCc3cc(C#N)ccc32)cc1.O=C(O)C(=O)O (centres unmarked) [Ex. 2]
*A* 70

*Q* State the recorded minimum lethal dose for this entry: CN(C)CCCC1(c2ccc(F)cc2)OCc2cc(C#N)ccc21 (centres unmarked) [Citalopram, reference compound]
*A* 30

###

Hi there, I'd appreciate the recorded minimum lethal dose for every entry that follows.
Tested on: Sprague-Dawley (SD) rats
Assay: Acute toxicity test, single dose, mortality
Format: in vivo, rat
Parameters: unit not given here
Conditions: Intravenously, female SD rats
Excerpt: The present derivatives and citalopram were individually administered orally and intra-venously to SD rats at a single dose.
Answer using only a numeral; do not append any unit.

*Q* State the recorded minimum lethal dose for this entry: CN(C)CCCC1(c2ccc(F)cc2)OCc2cc(C#N)ccc21 (centres unmarked) [Citalopram, reference compound]
*A* 30

*Q* State the recorded minimum lethal dose for this entry: N#Cc1ccc2c(c1)COC2(CCCn1ccnc1)c1cccs1.O=C(O)C(=O)O (centres unmarked)
*A* 50

*Q* State the recorded minimum lethal dose for this entry: CN(C)CCCC1(c2ccc(N(C)C)cc2)OCc2cc(C#N)ccc21.O=C(O)C(=O)O (centres unmarked)
*A* 50

*Q* State the recorded minimum lethal dose for this entry: COc1ccc(C2(CCCN(C)C)OCc3cc(C#N)ccc32)cc1.O=C(O)C(=O)O (centres unmarked)
*A* 70

*Q* State the recorded minimum lethal dose for this entry: CN(C)CCCC1(c2cccs2)OCc2cc(C#N)ccc21.O=C(O)C(=O)O (centres unmarked)
*A* 50
